What Ki was measured for each of the following?
# study_target: 5-HT1B receptor (Homo sapiens, UniProt P28222)
# Construct: gene HTR1B; full-length human recombinant receptor in CHO-K1 cells (Ogeda); crude membranes
# Sequence (P28222 whole entry): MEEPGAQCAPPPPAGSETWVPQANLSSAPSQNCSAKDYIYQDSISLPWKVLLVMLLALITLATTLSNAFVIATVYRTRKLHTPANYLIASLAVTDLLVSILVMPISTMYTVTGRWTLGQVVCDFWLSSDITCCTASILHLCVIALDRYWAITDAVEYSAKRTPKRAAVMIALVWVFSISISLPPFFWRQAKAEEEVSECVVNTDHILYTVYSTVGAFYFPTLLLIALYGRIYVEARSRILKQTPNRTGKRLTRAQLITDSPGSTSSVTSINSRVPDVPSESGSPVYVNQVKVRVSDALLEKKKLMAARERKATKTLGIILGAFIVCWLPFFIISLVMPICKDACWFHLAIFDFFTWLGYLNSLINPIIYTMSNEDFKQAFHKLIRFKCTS
# assay: radioligand competition, CHO-K1 membranes
# Format: binding
# assay_setup: read-out: 5-HT1B / pKi (converted)
Structures can show the parent of a compound that is named as a salt.
Numbers only, in nM.

>>> endpoint_value("N#Cc1ccc(N2CCN(C(=O)COc3ccc4[nH]cc(CCN)c4c3)CC2)cc1 [Donitriptan hydrochloride]")
0.17

Record Ki per entry; entries follow.
1. CN1CCC[C@@H]1Cc1c[nH]c2ccc(CCS(=O)(=O)c3ccccc3)cc12 [Eletriptan hydrobromide]
2. CNS(=O)(=O)CCc1ccc2[nH]cc(C3CCN(C)CC3)c2c1 [Naratriptan hydrochloride]
3. CNS(=O)(=O)Cc1ccc2[nH]cc(CCCN3CCN(c4ncncc4OC)CC3)c2c1 [Avitriptan fumarate]

[0.525, 0.603, 1.58]
